Ref: the supplement of paper PMC9233669

Reported self-aminoacylation is given for each of the following sequences.
- System: biotinyl-Ile-oxazolone
- EXPERIMENT DESCRIPTION: self-aminoacylation, catalytic enhancement (BIO) (fold over background); higher = more active; k-Seq, kA / k0A0; sequences stand for … in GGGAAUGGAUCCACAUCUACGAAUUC…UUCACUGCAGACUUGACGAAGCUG
Fewer inactive variants are shown than the library holds.

SEQUENCE DATA | self-aminoacylation
AUUGCCCUGGUCCUCGAGUGA [Fam2.1 aminoacylation ribozyme variant] | 1.94
AUUCACCUAGGUCUUAGGGUG [Fam2.2 aminoacylation ribozyme variant] | 3.08
CCACACUUCGACCAAUCGGUC [Fam1B.1 aminoacylation ribozyme variant] | 1.31
AUUACCCUAGUAAUCGAGUGA [Fam2.1 aminoacylation ribozyme variant] | 3.08
AUUACCCGGGUCAUCGAGUCA [Fam2.1 aminoacylation ribozyme variant] | 1.29
CCACAUUUCAAGCAAUCGGGC [Fam1B.1 aminoacylation ribozyme variant] | 3.08
AUUCACCUAGGCCAUCGGGCG [Fam2.2 aminoacylation ribozyme variant] | 2.65
AUUGACCGAGGUCAUCGGGUG [Fam2.2 aminoacylation ribozyme variant] | 4.88
ACGUUUGGUAAUAGUCGCAAG [Fam3.1 aminoacylation ribozyme variant] | 1.75
CCACACUUCAAGCAAUCGACC [Fam1B.1 aminoacylation ribozyme variant] | 0.623
AUUACUCUGGUCAUCGCGUGA [Fam2.1 aminoacylation ribozyme variant] | 8.13
AUUCACCUAGUACAUCGGGUG [Fam2.2 aminoacylation ribozyme variant] | 1.55
AUUCACCUCGGUUAUCGGGUG [Fam2.2 aminoacylation ribozyme variant] | 4.48
AUUACCCGGGGCAUCGAGUGA [Fam2.1 aminoacylation ribozyme variant] | 5.21
CCACUUCAAACAAUCGGUCAG [Fam1A.1 aminoacylation ribozyme variant] | 1.01
CUGAUUCAAACAAUCGGUCUG [Fam1A.1 aminoacylation ribozyme variant] | 0.947
AUUCACCCAGGUCACCGGGUG [Fam2.2 aminoacylation ribozyme variant] | 3.47

###

- Test system: biotinyl-Phe-oxazolone
- EXPERIMENT DESCRIPTION: self-aminoacylation, catalytic enhancement (BFO) (fold over background); higher = more active; k-Seq, kA / k0A0; sequences stand for … in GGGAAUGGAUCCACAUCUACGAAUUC…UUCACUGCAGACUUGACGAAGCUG
Variants at the floor of the assay were thinned out.
Reported self-aminoacylation is given for each of the following sequences.

SEQUENCE DATA | self-aminoacylation
AUCCACCUAGGUCAUCGGUUG [Fam2.2 aminoacylation ribozyme variant] | 5.85
CCACACUUCAACCAAUCAGUC [Fam1B.1 aminoacylation ribozyme variant] | 28.8
AAUCACAUAGGUCAUCGGGUG [Fam2.2 aminoacylation ribozyme variant] | 49.2
AAUACCCUGGCCAUCGAGUGA [Fam2.1 aminoacylation ribozyme variant] | 2.33
AUUAUCCUGGUAAUCGAGUGA [Fam2.1 aminoacylation ribozyme variant] | 96.5
CUACUUGAAACAAUGGGUCUG [Fam1A.1 aminoacylation ribozyme variant] | 0.694
GUUUCCCUGGUCAUCGAGUGA [Fam2.1 aminoacylation ribozyme variant] | 48.7
AUACACCUAGGUCAUCGGGCG [Fam2.2 aminoacylation ribozyme variant] | 11
AAUCACCUAGGUCAUCGGGAG [Fam2.2 aminoacylation ribozyme variant] | 1.94
CCACACUUCUAGCACUCGGUC [Fam1B.1 aminoacylation ribozyme variant] | 0.649
CCACACUCCAAGCAAUCGCUC [Fam1B.1 aminoacylation ribozyme variant] | 0.753
CCACACUUAAAGCAUUCGGUC [Fam1B.1 aminoacylation ribozyme variant] | 1.03
GUUCACCCAGGUCAUCGGGUG [Fam2.2 aminoacylation ribozyme variant] | 29.1
AAAUUUGCUCAUAGUCGCAAG [Fam3.1 aminoacylation ribozyme variant] | 2.13
AUUCAACUAGGUCAUCGAGUG [Fam2.2 aminoacylation ribozyme variant] | 2.85
AUGUUUGCCAAUAGUCGCAAG [Fam3.1 aminoacylation ribozyme variant] | 1.82
AAUUUUGCUAAUGGUCGCAAG [Fam3.1 aminoacylation ribozyme variant] | 3.61
AUUACCAUGGGCAUCGAGUGA [Fam2.1 aminoacylation ribozyme variant] | 30.7
CUACUUCAAACAAUCGGUGGG [Fam1A.1 aminoacylation ribozyme variant] | 1.14
AUUAGCCCGGUCAUCGAGUGA [Fam2.1 aminoacylation ribozyme variant] | 55.9
CUACCUCAAACGAUCGGUCUG [Fam1A.1 aminoacylation ribozyme variant] | 1.42
ACUCACAUAGGUCAUCGGGUG [Fam2.2 aminoacylation ribozyme variant] | 69.5
AAGCACCUAGGUCAUCGGGUG [Fam2.2 aminoacylation ribozyme variant] | 23.6
AUUACCCUGGACAUGGAGUGA [Fam2.1 aminoacylation ribozyme variant] | 57.2
